- System: Staphylococcus aureus
- assay.remarks: Antibacterial activity against Staphylococcus aureus MTCC 96 assessed as growth inhibition after 24 hrs by agar dilution method
- Format: functional
- recorded.conditions: MTCC 96, 24 h
readout: MIC (µg/mL)
Respond with the bare value in µg/mL.

CC(=O)NC[C@H]1CN(c2ccc(N3CCN(Cc4cc(-c5ccc(C(C)C)cc5)n(-c5ccc(F)cc5F)c4C)CC3)c(F)c2)C(=O)O1 ... 2

Consider the record given below.
Request: Query MIC for Cc1ccc(-c2cc(CN3CCN(c4ccc(N5C[C@H](Cn6cc(-c7ccccn7)nn6)OC5=O)cc4F)CC3)c(C)n2-c2ccc(Cl)c(Cl)c2)cc1
Response: 8

====

- System: Staphylococcus aureus
- assay.remarks: Antibacterial activity against Staphylococcus aureus MTCC 96 assessed as growth inhibition after 24 hrs by agar dilution method
- Type: functional
- recorded.conditions: MTCC 96, 24 h
readout: MIC (µg/mL)
The answer is to be given in µg/mL; state only the numeric part.

See these solved cases before continuing.
CC(=O)NC[C@H]1CN(c2ccc(N3CCN(Cc4cc(-c5ccc(F)cc5F)n(-c5cc(F)ccc5Br)c4C)CC3)c(F)c2)C(=O)O1 ... 3
CC(=O)NC[C@H]1CN(c2ccc(N3CCN(Cc4cc(-c5cccc(Cl)c5)n(-c5ccccc5F)c4C)CC3)c(F)c2)C(=O)O1 ... 0.5
Cc1ccc(-c2cc(CN3CCN(c4ccc(N5C[C@H](Cn6cc(-c7ccccc7)nn6)OC5=O)cc4F)CC3)c(C)n2-c2ccc(Cl)c(Cl)c2)cc1 ... 8

Consider now this further compound.
Request: Identify measured MIC obtained with Staphylococcus aureus for Cc1c(CN2CCN(c3ccc(N4C[C@H](Cn5cc(-c6cncn6C)nn5)OC4=O)cc3F)CC2)cc(-c2ccc(F)cc2F)n1-c1ccc(F)cc1 .
Response: 16
